Test: NCI Yeast Anticancer Drug Screen. Data for the rad50 strain (AID 155);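 also: 0% = growth of vehicle-only cultures of the same strain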
Conditions: S. cerevisiae rad50 strain growth inhibition; at 50.0 µM
Method: Growth inhibition of yeast strains with defined genetic alterations is measured as a screen for potential anti-cancer activity. Selected strains with alterations in DNA damage repair or cell cycle control were exposed to compounds and growth inhibition was measured relative to vehicle treated controls. The strain used in this assay is rad50
The panel holds about 79,000 compounds, 15% with a hit somewhere; the sample as a whole holds those more often. Calls of active or inactive are those of the source. Rule as the data show it: active = growth inhibition above about 70%; inactive = the rest.
Valid outcomes are listed here; reply with one: active, inactive

Some entries whose results are on file:
INSERT INTO results (molecule, group_label) VALUES
  ('CCCCCCCCCc1cc(=O)[nH]c(=S)[nH]1', 'active'),
  ('CC(=O)OC1=CC2(OC(C)=O)CC(C)(C)C1C1C(=O)C=CC(=O)C12 (configuration not stated)', 'inactive'),
  ('CCCCCCCCN(CCCCCCCC)CC(O)c1cc(OCC)nc2ccccc12 (configuration not stated)', 'active');

Input line: Kindly provide the recorded test outcome for the following molecule: O=C(C[n+]1cccc2ccccc21)c1ccc(-c2ccc(C(=O)C[n+]3cccc4ccccc43)cc2)cc1
Output line: inactive

Input line: Kindly provide the recorded test outcome for the following molecule: CCN(CC)CCSCCCNc1cc(C)nc2c1ccc1c2ccc2c(NCCCSCCN(CC)CC)cc(C)nc21
Output line: active

Input line: Kindly provide the recorded test outcome for the following molecule: O=C(/C(=C/c1ccc(Cl)cc1)c1ccccc1)c1ccc(O)cc1
Output line: active

----------
experiment: NCI Yeast Anticancer Drug Screen. Data for the mlh1 rad18 strain (AID 175); details: S. cerevisiae mlh1 rad18 strain growth inhibition; at 50.0 µM (retest, dose inferred, filed as 5.0)
About 79,000 compounds went through this panel and 15% of them were active in at least one assay; those are over-represented in the sample as a whole. Active and inactive are the calls of the source. Rule as the data show it: active = growth inhibition above about 70%; inactive = the rest.
Valid outcomes are listed here; reply with one: active, inactive

Some entries whose results are on file:
INSERT INTO measurements (compound, group_label) VALUES
  ('CCCCCCCSCc1nc2ccccc2c(C)[n+]1[O-]', 'active'),
  ('Clc1ccc(CN2COc3c(cc(Cl)c4cccnc34)C2)c(Cl)c1', 'active'),
  ('CC1CCC(SC2CC(=O)CCC2=O)CC1 (stereo unspecified)', 'active'),
  ('Clc1nc(Cl)c(Cc2ccccc2)c(Cl)n1', 'active'),
  ('c1ccc([P+](c2ccccc2)(c2ccccc2)C2CCCCO2)cc1 (stereo unspecified)', 'inactive');

Could you now look at the following compound, please?
Input line: Kindly provide the recorded test outcome for the following compound: O=C1CCC(C(c2ccccc2)(c2ccccc2)c2ccccc2)CC1=O (stereo unspecified)
Output line: active

----------
assay: NCI Yeast Anticancer Drug Screen. Data for the cln2 rad14 strain (AID 165);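 also: 0% = growth equal to vehicle treated cultures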; settings: S. cerevisiae cln2 rad14 strain, at 50.0 µM (retest, dose inferred, filed as 5.0), stronger effect = higher value
Compounds without any hit were thinned out: in the full panel of roughly 79,000, 15% have a hit.
attribute_measured: growth inhibition (%)
The answer is to be given in %; state only the numeric part.

These solved cases illustrate the format of a correct answer.
INSERT INTO results (compound, attribute_measured, recorded_number) VALUES
  ('CSC(=S)N/N=C(\C)c1ccc[nH]1', 'growth inhibition', 92),
  ('C=C1C(=O)C23OC2C1CCC(=O)C1(C)CC[C@H](OC(C)=O)C(C)(C)[C@H]1CC3O (some centres undefined)', 'growth inhibition', 16),
  ('CC(=O)NCC1OC2COC(c3ccccc3)OC2C(NC(=O)c2ccccc2)C1OC(=O)c1ccccc1 (centres undefined)', 'growth inhibition', -15);

Input line: What measured growth inhibition goes with CC[C@H]1CN2CCc3cc(OC)c(OC)cc3[C@@H]2C[C@@H]1C[C@H]1NCCc2cc(OC)c(OC)cc21 ?
Output line: 17

Input line: What measured growth inhibition goes with CC(=O)C(C(=N)C#N)C(=O)Nc1ccccc1 (centres undefined) ?
Output line: -2

Input line: What measured growth inhibition goes with CC(C)c1ccc(N2C(=O)C=CC2=O)cc1 ?
Output line: 99
